Target: T1, 4H3172-bA
T1 chain: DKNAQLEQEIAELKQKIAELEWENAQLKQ
Test: two-hybrid library CCNG1;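 note: natural log of median RNA to DNA barcode read ratio; higher means stronger binding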
The recorded interaction score of each item maps onto one of these classes: lo: < -1; mid: ≥ -1 and < -0.3; hi: ≥ -0.3

Solved cases (5 shown):
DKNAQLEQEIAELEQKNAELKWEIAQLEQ [4H3129-bA]
lo
DENAQLKQKIAELEQEIAELKWENAQLKQ [4H1804-bA]
hi
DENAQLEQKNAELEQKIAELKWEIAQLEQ [4H1449-bA]
lo
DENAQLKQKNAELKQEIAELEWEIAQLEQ [4H1985-bA]
mid
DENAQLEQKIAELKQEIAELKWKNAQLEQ [4H1359-bA]
hi

Consider the additional binder presented here.
Which bin should I file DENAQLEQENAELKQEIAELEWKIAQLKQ [4H1222-bA] under?
hi
